System: UO-31 renal
assay.overview: NCI-60 one-dose screen, 48 h (100 = growth as untreated, 0 = no growth, -100 = all killed)
details: 10 µM unless noted
This is part of a sample that, as a whole, favours compounds with a hit. Of some 83,000 tested, about 20% had one in any assay.
Lab note: class by growth, see LOW = under 50%, MEDIUM = from 50% up to 80%, HIGH = 80% and over

A selection of reference data follows.
Cn1c2ccc(Cl)cc2c2nn(C(=O)c3ccccc3)c(=O)nc21: MEDIUM
Clc1ccc(Nc2ccnc(N3CCN(c4ccnc5cc(Cl)ccc45)CC3)n2)cc1: LOW
O=C(COc1cccc(/C=C2\COc3ccccc3C2=O)c1)c1ccccc1: MEDIUM
O=c1c2c(=NCCN3CCCC3)cc3c(=O)n(CCCN4CCOCC4)c(=O)c4c(-c5ccc(CN6CCCC6)cc5)cc(c(O)n1CCCN1CCOCC1)c2c4-3: LOW
COc1ccc(-c2c3c(N)c4c(nc3nc3c2c(C)nn3-c2ccccc2)CCCCC4)cc1: MEDIUM

Dear colleague, I would appreciate it if you could identify the bin for O=C(Nc1ccc(Cl)c(Cl)c1)OCn1ncc2ccc([N+](=O)[O-])cc21 and reply at your convenience.
LOW

Field: class (growth) — entry: CS(=O)(=O)Nc1cccc(C(=O)NCc2ccc(N3CCOCC3)cc2)c1
HIGH

Could you place COc1cc(-c2nc(SC(C)C)nc(Nc3ccccc3C)c2C#N)cc(OC)c1OC in its proper category? Many thanks.
HIGH

Hi there! Could you help me figure out the category for O=C(c1cnn2c1NC(c1ccc(F)cc1)C2)N1CCCCC1 (stereo unspecified) please?
HIGH

Pick a category. Item: CCOC(=O)c1c(Cl)c2c(n1Cc1ccc(OC)cc1)-c1oncc1CCC2
MEDIUM

Class (by measured growth) for COc1cc(/C=N/NC(=O)c2cnn3c2NC(c2ccccc2)C3)ccc1OC1CCCC1 (stereo unspecified)
LOW

Which category fits this record: O=S(=O)(Nc1ccc(Cl)c(Cl)c1)c1ccc(-c2cnc(C3CC3)o2)cc1
LOW

Textbook exercise: identify the category of the compound given here, COc1ccc(Nc2nc(NCCNc3ccnc4cc(Cl)ccc34)nc(N3CCOCC3)n2)cc1 , according to its measured value.
LOW

Which growth category applies to c1ccc(-c2n(Cc3ccc4ccccc4n3)c3ccccc3[n+]2Cc2ccc3ccccc3n2)cc1 here?
LOW

Class for Cc1ccc2c(c1)c(Sc1ccc(C(=O)NO)cc1)c1n2CN(C)CC1 ?
LOW

Textbook exercise: identify the category of the compound given here, COc1ccc(C2=NOC(CC(=O)N(CCO)CCO)C2)cc1OC1CCCC1 (stereo unspecified) , according to its measured value.
HIGH

Determine which band this compound sits in: Clc1ccc2c(N3CCN(c4ccnc(NC5CCCCC5)n4)CC3)ccnc2c1
LOW

Bin? CC(C)NCC(O)COc1ccc(CCOCC2CC2)cc1 (stereo unspecified)
MEDIUM

Which class is correct for the following compound? CCN(c1ccc(C(=O)N2CCN(c3ccccc3)CC2)cc1)S(C)(=O)=O
HIGH

====

Tested on: MALME-3M melanoma
assay.overview: NCI-60 one-dose screen, 48 h
details: 10 µM unless noted
Compounds without any hit were thinned out: in the full panel of roughly 83,000, 20% have a hit. The source made the active and inactive calls. How the source made its calls: active means growth percent below 10; inactive means the rest.
Return exactly one item of Yes for active, No for inactive

Worked examples, 5 compounds total:
Cc1nn(CC(=O)O)c2c1C(=O)CC(C)(C)C2: No
CCOC(=O)n1cc(C2=C(c3cn(C)c4ccccc34)COC2=O)c2ccccc21: No
CC(C)(C)[Si](C)(C)OC1[C@@H](COC(=O)NC(=O)CCl)O[C@@H](n2cnc3c(N)ncnc32)[C@H]1O[Si](C)(C)C(C)(C)C (some centres undefined): Yes
Cc1ccc(-c2nnc(COc3ccc(-c4nnc(N)s4)cc3)o2)cc1: No
Fc1c[c-]c(-c2ccccn2)c(F)c1.Fc1c[c-]c(-c2ccccn2)c(F)c1.[Cl][Pt+].[Cl][Pt+].c1ccc([PH+](C[PH+](c2ccccc2)c2ccccc2)c2ccccc2)cc1: Yes

Call for entry O=C(N/N=C(\CS(=O)(=O)c1ccccc1)c1cc2ccccc2oc1=O)c1ccccc1 :
No

Returns: the outcome recorded for CNc1ccc(Br)cc1-c1n[nH]c(=O)[nH]c1=O in this assay.
No

Assay outcome for COc1cccc(C2C3=C(COC3=O)N(CCO)c3cc4c(cc32)OCO4)c1 (centres undefined) : what was it?
No

Which outcome was assigned to Cc1nc(NN)c([N+](=O)[O-])c(NN)n1 in this test?
No

====

System: SR leukemia
assay.overview: NCI-60 one-dose screen, 48 h
details: 10 µM unless noted
Compounds without any hit were thinned out: in the full panel of roughly 83,000, 20% have a hit. Active and inactive are the calls of the source. How the source made its calls: active means growth percent below 10; inactive means the rest.
Pick one and only one: active, inactive

CCOC(=O)C1=C(C)N2C(=NC3=C(CCCC/C3=C\c3cc(OC)c(OC)c(OC)c3)C2c2cc(OC)c(OC)c(OC)c2)S1 (stereo not given): inactive
CCOC(=O)c1c(-c2cc(OC)c(OC)c(OC)c2)csc1N: inactive
CCCCCn1c(=N)n(CC(O)COc2cccc(C)c2)c2ccccc21 (stereo not given): active
Cc1nc2cc(Nc3nc(Nc4ccc(F)cc4)nc(-c4cccs4)n3)ccc2n1Cc1ccccc1: inactive
Cn1c2ccc(Cl)cc2c2nn(C(=O)c3ccccc3)c(=O)nc21: inactive

Could you check what this test reported for O=C1NC(=O)C(CSc2ccccc2)(c2ccccc2)N1 (stereo not given) ?
inactive

Assay outcome for NC(=O)c1cc(I)ccc1NC(=O)COc1ccccc1 : what was it?
inactive

Any idea what this test logged for COc1cc(/C=C2\C(=O)Nc3ccccc32)cc(OC)c1O ?
active

Outcome? O=C1c2c(c3c4cc(Br)ccc4[nH]c3c3ccc4ccccc4c23)C(=O)N1O
inactive

Fill in: this test's call for COc1ccc(-n2c(SCc3cc(OC)c(OC)c(OC)c3)nc3ccc(C)cc3c2=O)c(OC)c1 is ___
active

====

growth by entry:
System: SK-MEL-2 melanoma
assay.overview: NCI-60 one-dose screen, 48 h (100 = growth as untreated, 0 = no growth, -100 = all killed)
details: 10 µM unless noted
Compounds without any hit were thinned out: in the full panel of roughly 83,000, 20% have a hit.
Could you give me the number in %? Just the number is fine.

Please review the following examples before continuing.
CCOC(=O)c1cc2c(n(C)c1=O)-c1cnn(-c3ccc(OC)cc3)c1CC2: 105
O=C(N/N=C(\CS(=O)(=O)c1ccccc1)c1cc2cc(Br)ccc2oc1=O)c1ccccc1: 105

Entry c1ccc(-c2n(Cc3ccc4ccccc4n3)c3ccccc3[n+]2Cc2ccc3ccccc3n2)cc1 ; growth = -20.7

Record O=[N+]([O-])c1ccc(C=C2C(Cl)=C(Cl)C(Cl)=C2Cl)cc1 . Reported growth: 102

Notebook: COc1ccc(-c2c(-c3cc4c(c(OC)c3OC)OCO4)noc2N)cc1 , growth read as 63

Measured growth, CCCCC(CCCC)(S(=O)(=O)CC)S(=O)(=O)CC : 108

====

Test system: HCC-2998 colon
assay.overview: NCI-60 one-dose screen, 48 h (100 = growth as untreated, 0 = no growth, -100 = all killed)
details: 10 µM unless noted
The panel holds about 83,000 compounds, 20% with a hit somewhere; the sample as a whole holds those more often.
growth reference
Answer with a number only, understood to be in %.

Reference set (4 entries):
Cc1ccc(-c2nnc(COc3ccc(-c4nnc(N)s4)cc3)o2)cc1: 107
CC(=O)Nc1ccccc1-c1n[nH]c(=O)[nH]c1=O: 116
Cc1nn(CC(=O)O)c2c1C(=O)CC(C)(C)C2: 98.9
Cc1nc2cc(Nc3nc(N4CCCCC4)nc(N4CCOCC4)n3)ccc2n1Cc1ccccc1: 94.3

Form field growth, entry O=C(NC1CC1)c1cc2n(n1)CC(c1ccccc1)N2 (stereo not given) : 101

# compound CCCCNNC(=O)c1ccc(Br)cc1 ; its growth = 61.4

The recorded growth for entry COc1ccc(/C=C2\CN(Cc3cn(CCCNc4ccnc5cc(Cl)ccc45)nn3)C/C(=C\c3ccc(OC)cc3)C2=O)cc1 equals 95.1

// recorded growth for O=C(O)c1ccccc1Oc1cc(-c2ccco2)nc(OCCBr)n1 : 107

growth for Cc1nc2cc(Nc3nc(Nc4ccc(F)cc4)nc(-c4ccc(Cl)cc4)n3)ccc2n1Cc1ccccc1 is 81.6

Noted for COc1cc(OCc2cccc(-c3ccc(C(O)c4nccs4)cc3)c2C)cc(OC)c1C=O (stereo not given) : its growth reads 73.9

====

System: K-562 leukemia
assay.overview: NCI-60 one-dose screen, 48 h
details: 10 µM unless noted
About 83,000 compounds went through this panel and 20% of them were active in at least one assay; those are over-represented in the sample as a whole. Calls of active or inactive are those of the source. Rule for the calls: active = growth percent below 10; inactive = the rest.
Entry note: the call must match one of active, inactive

// return assay outcome for C=C(C)CCCC(C)CC#N (stereo unspecified)
inactive

Dear colleague, could you share the recorded outcome for CCCCCCCCCCCCSC1=CC(=O)C=CC1=O when you have a moment?
inactive

What call does the record list for Cl.Fc1c[c-]c(-c2ccccn2)c(F)c1.[Pt].c1ccc([PH+](CC[PH+](c2ccccc2)c2ccccc2)c2ccccc2)cc1 ?
active

Tell me the recorded outcome of this test for Cc1nc2cc(Nc3nc(Nc4ccc(F)cc4)nc(N4CCN(C)CC4)n3)ccc2n1Cc1ccccc1 .
active

Check the results log: what was the call for CC(C)(C)CC(C)(C)N(CSc1ccc(Cl)cc1)CSc1ccc(Cl)cc1 ?
inactive

Check the results log: what was the call for O=C(Nc1ccc(Cl)c(Cl)c1)NC(CO)(CO)CO ?
inactive

What outcome does the record of this test show for COc1ccc2c(c1)c(=O)oc1c(C)c(OCC(C)=O)ccc12 ?
inactive

What classification did COc1ccc(-c2c3c(N)c4c(nc3nc3c2c(C)nn3-c2ccccc2)CCCCC4)cc1 end up with in this test?
inactive
